Recorded values, source PubChem BioAssay.

Test: reduction of polyQ htt aggregates in cells – imaging, exon1htt(103Q)mCFP cells, high-content imaging, primary screen (AID 483);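 note: compound exposure lasted 3 days before fixation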
Conditions: exon1htt(103Q)mCFP cell line, aggregate imaging, at 2 µM; hits give high values
Reported inhibition of aggregation values follow for various compounds
Number only, in %; omit the unit.

Example entries begin here.
Query inhibition of aggregation for Cc1ccc(S(=O)(=O)N2CCCN(S(=O)(=O)C3CCS(=O)(=O)C3)CC2)cc1 (stereo not given)
-22.7

Tell me its inhibition of aggregation given "O=C(NCCCN1CCCC1=O)C1CCN(S(=O)(=O)N2CCOCC2)CC1" as the entry.
17.1

Item "CCNS(=O)(=O)c1ccc(S(=O)(=O)N(Cc2ccccn2)C2CCCCC2)cc1" : provide inhibition of aggregation
6.6

Complete the entry with inhibition of aggregation for O=C(C1CCCO1)N1CCN(C(c2ccccc2)c2ccccc2)CC1 (stereo not given)
10.8

Please give measured inhibition of aggregation of the following entry: "CCOC(=O)c1ccc(NS(=O)(=O)c2ccc(SC)cc2)cc1"
4.8

More entries:
Annotate the compound "Nc1nnc(-c2cc3ccccc3oc2=O)s1" with its measured inhibition of aggregation.
2.5

Give a short answer stating reported inhibition of aggregation for "CC(=O)n1nc(-c2ccco2)nc1SCc1ccccc1" .
25.1

Complete the entry with inhibition of aggregation for "O=C(N1CCN(Cc2ccccc2)CC1)C12CC3CC(CC(C3)C1)C2"
2

Output inhibition of aggregation of "O=C(NCc1cccnc1)c1cn(CCc2ccccc2)nn1"
-18.3

Read off the recorded inhibition of aggregation for Oc1ccccc1C1=Nc2nc3ccccc3n2C(c2ccccc2)C1 (stereo not given)
3.6

Identify measured inhibition of aggregation corresponding to "COc1cccc(-n2c(CNc3ccc(F)cc3)nnc2SCC(N)=O)c1"
-17

Identify measured inhibition of aggregation associated with "Cc1ccc2c(c1)-c1c(cnn1CC(=O)Nc1ccccc1N1CCN(C)CC1)CO2"
-22

Quickly give me recorded inhibition of aggregation for "COc1ccccc1-c1nc(C#N)c(N2CCN(c3ccccc3)CC2)o1"
17

Return the recorded inhibition of aggregation value; entry: "Cc1ccc2nc(NC(=O)Cn3cc4c(n3)CCCCC4)sc2c1"
4

# return recorded inhibition of aggregation for input "CCn1c(CSc2nnc(-c3cccnc3)n2-c2ccccc2C)nc2cc(C(=O)O)ccc21"
5.1

Quote inhibition of aggregation reported for "Cc1ccc(CNC(=O)C2CCN(S(=O)(=O)c3cccs3)CC2)o1" please.
11.2
